Biological target: SIRT3 (Homo sapiens)
Sequence (Q9NTG7 1-399): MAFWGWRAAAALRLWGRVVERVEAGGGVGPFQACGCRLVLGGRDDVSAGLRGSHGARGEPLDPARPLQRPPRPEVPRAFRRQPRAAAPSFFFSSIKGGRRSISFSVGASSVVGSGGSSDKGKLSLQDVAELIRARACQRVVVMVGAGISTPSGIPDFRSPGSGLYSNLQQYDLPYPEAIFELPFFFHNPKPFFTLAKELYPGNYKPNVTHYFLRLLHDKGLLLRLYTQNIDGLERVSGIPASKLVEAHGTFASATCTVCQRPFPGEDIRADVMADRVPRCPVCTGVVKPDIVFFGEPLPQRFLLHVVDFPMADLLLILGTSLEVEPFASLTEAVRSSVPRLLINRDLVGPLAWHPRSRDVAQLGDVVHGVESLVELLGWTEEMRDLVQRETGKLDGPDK
Experiment: Fluor de Lys SIRT3 assay
Settings: read-out: % inhibition at 50 μM SIRT3
Where a SMILES comes first, the peptide text is derived from it. Side-chain parts run from the residue outwards. The star is where a group is joined. Cbz = O=C(OCc1ccccc1)*; Bz = O=C(c1ccccc1)*
property: inhibition at 50 µM (%)
Answer with a number only, understood to be in %.

1. C[C@H](NC(=O)[C@H](CCCCNC(=O)CNC(=O)c1ccccc1)NC(=O)OCc1ccccc1)C(N)=O [Compound 28] (Cbz-Lys([Gly-Bz])-Ala-NH2); 0
2. O=C(Nc1cccc([N+](=O)[O-])c1)c1cccc(S(=O)(=O)N2CCCCCC2)c1 [Compound 8, AK-1, reference compound]; 0
3. CCCNC(=S)CNC(=O)c1ccccc1Nc1cccc(OCCc2ccccc2)c1; 0
4. C[C@H](NC(=O)[C@H](CCCCNC(=O)CNC(=O)c1ccccc1Nc1ccccc1)NC(=O)OCc1ccccc1)C(N)=O; 16

Record lookup: for SIRT3 (Homo sapiens), what inhibition at 50 µM belongs to Cc1cc(C)nc(SCC(=O)Nc2ncc(Cc3cccc4ccccc34)s2)n1 [Compound 5, SirReal2, reference compound] ?
1

###

Measured inhibition at 10 µM values are reported for all entries that follow.
Molecular target: UniProt Q8IXJ6
Sequence (Q8IXJ6 whole entry): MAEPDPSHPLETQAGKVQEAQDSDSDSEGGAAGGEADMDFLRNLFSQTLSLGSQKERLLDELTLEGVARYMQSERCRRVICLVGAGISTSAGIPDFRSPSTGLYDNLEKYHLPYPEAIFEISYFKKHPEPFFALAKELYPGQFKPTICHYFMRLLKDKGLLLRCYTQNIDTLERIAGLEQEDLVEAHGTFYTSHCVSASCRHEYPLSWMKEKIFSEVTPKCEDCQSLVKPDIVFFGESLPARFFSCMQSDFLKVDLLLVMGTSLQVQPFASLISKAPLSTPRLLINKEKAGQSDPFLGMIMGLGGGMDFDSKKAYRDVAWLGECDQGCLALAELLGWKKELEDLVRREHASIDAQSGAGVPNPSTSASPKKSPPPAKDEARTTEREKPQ
Experiment: Fluor de Lys SIRT2 assay
Settings: read-out: % inhibition at 10 μM SIRT2
Answer with a number only, understood to be in %.

Look over these answered cases.
1. Cc1cc(C)nc(SCC(=O)Nc2ncc(Cc3cccc4ccccc34)s2)n1 [Compound 5, SirReal2, reference compound]; 98
2. CCCCCNC(=S)CNC(=O)c1ccccc1Nc1cccc(OCCc2ccccc2)c1; 40
3. CCCCCNC(=O)CNC(=O)c1ccccc1Nc1cccc(OCCc2ccccc2)c1; 69

// switching to the query molecule
What value of measured inhibition at 10 µM is listed for O=C(Nc1cccc([N+](=O)[O-])c1)c1cccc(S(=O)(=O)N2CCCCCC2)c1 [Compound 8, AK-1, reference compound] ?
31

###

Measured pIC50 values are reported for all entries that follow.
Target: SIRT1 (Homo sapiens)
Sequence (Q96EB6 1-747): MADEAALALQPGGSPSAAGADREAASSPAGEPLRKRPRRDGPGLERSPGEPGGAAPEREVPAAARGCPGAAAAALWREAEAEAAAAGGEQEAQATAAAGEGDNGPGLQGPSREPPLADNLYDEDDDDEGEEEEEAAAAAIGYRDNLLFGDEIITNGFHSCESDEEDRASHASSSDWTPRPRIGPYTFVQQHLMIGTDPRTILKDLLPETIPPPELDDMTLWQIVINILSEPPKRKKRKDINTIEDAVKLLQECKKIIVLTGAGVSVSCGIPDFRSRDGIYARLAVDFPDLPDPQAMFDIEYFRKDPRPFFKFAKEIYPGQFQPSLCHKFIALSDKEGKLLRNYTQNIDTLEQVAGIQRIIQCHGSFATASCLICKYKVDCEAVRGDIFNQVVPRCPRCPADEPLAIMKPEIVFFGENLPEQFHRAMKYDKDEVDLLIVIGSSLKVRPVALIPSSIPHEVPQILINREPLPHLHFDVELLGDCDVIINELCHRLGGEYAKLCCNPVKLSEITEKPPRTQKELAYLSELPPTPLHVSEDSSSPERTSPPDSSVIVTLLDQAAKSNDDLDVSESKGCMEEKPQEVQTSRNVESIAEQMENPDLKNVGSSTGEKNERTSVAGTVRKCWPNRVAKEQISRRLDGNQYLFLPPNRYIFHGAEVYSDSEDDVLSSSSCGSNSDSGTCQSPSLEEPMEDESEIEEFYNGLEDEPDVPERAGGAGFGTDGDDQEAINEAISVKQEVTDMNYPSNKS
Assay: Fluor de Lys SIRT1 assay
Notebook: values listed as pIC50 are -log10 of the concentration (mol/L).

1. C[C@H](NC(=O)[C@H](CCCCNC(=S)CNC(=O)c1ccccc1Nc1cccc(OCCc2ccccc2)c1)NC(=O)OCc1ccccc1)C(N)=O [Compound 36]; 5.81

What value of measured pIC50 is listed for CC(=S)NCCCC[C@H](NC(=O)OCc1ccccc1)C(=O)N[C@@H](C)C(N)=O [UKU 10363, reference compound] ?
6.74
